# Method description: logP by HPLC on reversed-phase column (C 18), EEC Directive 79/831 Annex V.A8, Method A (0.1% aqueous phosphoric acid / acetonitrile, 43°C)
# Assay type: physicochemical
# Applied conditions: c18 reversed-phase hplc; LogP method A: HPLC reversed-phase C 18, 43°C, 0.1% aqueous phosphoric acid / acetonitrile
Catalogue of chromatographic logP readings, one per entry.

INSERT INTO assay_data (structure_string, result) VALUES
  ('Cc1nc(C(=O)N(C2CC2)S(=O)(=O)c2ccc(Cl)c(Cl)c2)cs1', 3.46),
  ('Cc1nn(C)c(F)c1C(=O)N(C1CC1)S(=O)(=O)c1cnc(Cl)c(Br)c1', 3.08),
  ('COCCn1c(C)c(C(=O)N(C2CC2)S(=O)(=O)c2cccc(Cl)c2)sc1=O', 2.01),
  ('Cc1c(C(=O)N(C2CC2)S(=O)(=O)c2ccc(Cl)c(C(F)(F)F)c2)sc(=O)n1Cc1ccccc1', 3.01);

Consider Cc1nn(C)c(F)c1C(=O)N(C1CC1)S(=O)(=O)c1cc(Cl)sc1Cl . Its measured chromatographic logP is 3.16

Consider O=C(c1cccnc1)N(C1CC1)S(=O)(=O)c1ccc(Cl)c(C(F)(F)F)c1 . Its measured chromatographic logP is 3.1

Consider Cc1nn(C)c(Oc2cccc(Cl)c2)c1C(=O)N(C1CC1)S(=O)(=O)c1ccc(Cl)c(Cl)c1 . Its measured chromatographic logP is 4.46

====

# Method description: logP by HPLC on reversed-phase column (C 18), EEC Directive 79/831 Annex V.A8, Method A (0.1% aqueous phosphoric acid / acetonitrile, 43°C)
# Type: physicochemical
# Applied conditions: c18 reversed-phase hplc; LogP method A: HPLC reversed-phase C 18, 43°C, 0.1% aqueous phosphoric acid / acetonitrile
Measurement kind: chromatographic logP
Quick one: just the number, no unit, thanks!

INSERT INTO assay_data (compound, readout_number) VALUES
  ('CCc1onc(C(C)C)c1C(=O)N(C1CC1)S(=O)(=O)c1cccc(Cl)c1 [compound 589]', 4.18),
  ('CCc1c(C(=O)N(C2CC2)S(=O)(=O)c2cccc(Cl)c2)sc(=O)n1C1CC1 [compound 615]', 2.01),
  ('Cn1nc(C(=O)N(C2CC2)S(=O)(=O)c2ccccc2Cl)n(C)c1=O [compound 608]', 1.97);

Please examine the following record next.
Consider Cc1nn(C)c(C)c1C(=O)N(C1CC1)S(=O)(=O)c1ccc(Cl)c(Cl)c1 [compound 412] . Its measured chromatographic logP is 3.21

====

# Method description: logP by HPLC on reversed-phase column (C 18), EEC Directive 79/831 Annex V.A8, Method A (0.1% aqueous phosphoric acid / acetonitrile, 43°C)
# Type: physicochemical
# Applied conditions: c18 reversed-phase hplc; LogP method A: HPLC, 43°C, 0.1% aqueous phosphoric acid, acetonitrile, gradient 10% to 90% acetonitrile
# Protocol: Calibration was carried out using unbranched alkan-2-ones (having 3 to 16 carbon atoms) with known logP values (determination of the logP values by the retention times using linear interpolation between two successive alkanones).
Catalogue of chromatographic logP readings, one per entry.

INSERT INTO measurements (molecule, result) VALUES
  ('Cc1nn(C)c(F)c1C(=O)N(C1(c2ccc(Cl)cc2)CC1)S(=O)(=O)c1cccc(Cl)c1Cl', 4.44);

Please examine the following record next.
Consider Cc1nn(C)c(F)c1C(=O)N(C1CC1c1ccccc1)S(=O)(=O)c1ccccc1Cl (centres unmarked) . Its measured chromatographic logP is 3.27

====

# Method description: logP by HPLC on reversed-phase column (C 18), EEC Directive 79/831 Annex V.A8, Method A (0.1% aqueous phosphoric acid / acetonitrile, 43°C)
# Format: physicochemical
# Applied conditions: c18 reversed-phase hplc; LogP method A: HPLC reversed-phase C 18, 43°C, 0.1% aqueous phosphoric acid / acetonitrile
Please enter true where chromatographic logP is greater than or equal to 3, and false where it is lower.

Recorded results for 5 molecules are shown here.
INSERT INTO measurements (structure_string, class_label) VALUES
  ('Cc1nn(C)c(F)c1C(=O)N(C1CC1)S(=O)(=O)c1cccc(Cl)c1Cl', 'false'),
  ('Cc1ccsc1C(=O)N(C1CC1)S(=O)(=O)c1cccc(Cl)c1', 'true'),
  ('Cc1c(C(=O)N(C2CC2)S(=O)(=O)c2cccc(Cl)c2)sc(=O)n1Cc1ccccc1', 'false'),
  ('Cc1ncc(C(=O)N(C2CC2)S(=O)(=O)c2ccc(Cl)c(Cl)c2)s1', 'true'),
  ('Cc1c(C(=O)N(C2CC2)S(=O)(=O)c2ccc(Cl)c(C(F)(F)F)c2)sc(=O)n1C', 'false');

// inclusive: chromatographic logP at least 3? input: Cn1cc(C(=O)N(C2CC2)S(=O)(=O)c2ccccc2Cl)c(I)n1
false

// inclusive: chromatographic logP at least 3? input: Cc1occc1C(=O)N(C1CC1)S(=O)(=O)c1ccccc1Cl
false

// inclusive: chromatographic logP at least 3? input: Cc1occc1C(=O)N(C1CC1)S(=O)(=O)c1cccc(Cl)c1
true

// inclusive: chromatographic logP at least 3? input: CCc1c(C(=O)N(C2CC2)S(=O)(=O)c2ccc(Cl)c(Cl)c2)sc(=O)n1C1CC1
true

// inclusive: chromatographic logP at least 3? input: CCc1c(C(=O)N(C2CC2)S(=O)(=O)c2ccc(Cl)cc2Cl)sc(=O)n1C1CC1
false

// inclusive: chromatographic logP at least 3? input: O=C(c1cc(Br)c(Br)o1)N(C1CC1)S(=O)(=O)c1ccccc1Cl
true

// inclusive: chromatographic logP at least 3? input: Cc1ncc(C(=O)N(C2CC2)S(=O)(=O)c2cccc(Cl)c2)s1
false

// inclusive: chromatographic logP at least 3? input: Cc1nn(C)c(Cl)c1C(=O)N(C1CC1)S(=O)(=O)c1ccc(Cl)c(Cl)c1
true

// inclusive: chromatographic logP at least 3? input: Cc1nn(C)c(F)c1C(=O)N(C1CC1)S(=O)(=O)c1c(Cl)cccc1Cl
false

// inclusive: chromatographic logP at least 3? input: Cc1nn(C)c(Oc2cccc(Cl)c2)c1C(=O)N(C1CC1)S(=O)(=O)c1ccc(Cl)c(C(F)(F)F)c1
true

====

# Method description: logP by HPLC on reversed-phase column (C 18), EEC Directive 79/831 Annex V.A8, Method B (0.1% aqueous formic acid / acetonitrile, 40°C)
# Type: physicochemical
# Applied conditions: c18 reversed-phase hplc; LogP method B: HPLC reversed-phase C 18, 40°C, 0.1% aqueous formic acid / acetonitrile
Entries whose chromatographic logP is below 4 take Satisfied; entries at or above 4 take Not satisfied.

INSERT INTO results (compound, class_label) VALUES
  ('CC(C)c1nn(C)c(F)c1C(=O)N(C1CC1)S(=O)(=O)c1cccc(Cl)c1Cl [compound 93]', 'Satisfied'),
  ('CCOc1nn(C)cc1C(=O)N(C1CC1)S(=O)(=O)c1ccc(Oc2ccc(Br)c(Cl)c2)c(Cl)c1 [compound 558]', 'Not satisfied'),
  ('Cn1cc(C(=O)N(C2CC2)S(=O)(=O)c2cccc(Cl)c2Cl)c(C(F)(F)F)c1 [compound 36]', 'Satisfied'),
  ('Cn1ncc(I)c1C(=O)N(C1CC1)S(=O)(=O)c1ccc(Cl)c(Cl)c1Cl [compound 663]', 'Satisfied'),
  ('Cn1nc(-c2ccccc2)c(C(=O)N(C2CC2)S(=O)(=O)c2ccc(Cl)c(Cl)c2Cl)c1F [compound 100]', 'Not satisfied');

Does the reported chromatographic logP of the following compound sit strictly below 4? Cc1cnn(C)c1C(=O)N(C1CC1)S(=O)(=O)c1cccc(Cl)c1Cl [compound 658]
Satisfied

Does the reported chromatographic logP of the following compound sit strictly below 4? CCOc1nn(C)cc1C(=O)N(C1CC1)S(=O)(=O)c1ccc(Oc2ccccc2)cc1Cl [compound 530]
Satisfied

====

# Method description: logP by HPLC on reversed-phase column (C 18), EEC Directive 79/831 Annex V.A8, Method B (0.1% aqueous formic acid / acetonitrile, 40°C)
# Type: physicochemical
# Applied conditions: c18 reversed-phase hplc; LogP method B: HPLC reversed-phase C 18, 40°C, 0.1% aqueous formic acid / acetonitrile
Catalogue of chromatographic logP readings, one per entry.

Recorded results for 6 molecules are shown here.
INSERT INTO assay_data (molecule, measurement_kind, result) VALUES
  ('CCOc1nn(C)cc1C(=O)N(C1CC1)S(=O)(=O)c1ccc(Oc2cc(Cl)cc(Cl)c2)c(Cl)c1 [compound 559]', 'chromatographic logP', 5),
  ('CCOc1nn(C)cc1C(=O)N(C1CC1)S(=O)(=O)c1ccc(Oc2ccc(OC)c(OC)c2)c(Cl)c1 [compound 528]', 'chromatographic logP', 3.5),
  ('Cn1nc(C(F)(F)F)c(C(=O)N(C2CC2)S(=O)(=O)c2ccc(F)cc2Cl)c1F [compound 362]', 'chromatographic logP', 3.1),
  ('COc1c(C(=O)N(C2CC2)S(=O)(=O)c2ccc(Cl)c(Cl)c2Cl)c(C)nn1C [compound 230]', 'chromatographic logP', 3.2),
  ('CCOc1nn(C)cc1C(=O)N(C1CC1)S(=O)(=O)c1ccc(Oc2ccc(F)c(Cl)c2)c(Cl)c1 [compound 548]', 'chromatographic logP', 4.4),
  ('CCOc1nn(C)cc1C(=O)N(C1CC1)S(=O)(=O)c1ccc(Oc2ccc(Cl)cc2Cl)cc1Cl [compound 543]', 'chromatographic logP', 4.3);

Please examine the following record next.
Consider Cn1nc(C2CC2)c(C(=O)N(C2CC2)S(=O)(=O)c2ccc(Cl)c(Cl)c2Cl)c1Cl [compound 223] . Its measured chromatographic logP is 4.2

Hey, just so you know, these numbers are from patent EP2540163A1.
